Values compiled from ChEMBL document CHEMBL5608194.

# Test system: SH-SY5Y
# Procedure text: Neuroprotective activity against ATRA-differentiated and 3-NPA induced cell death in human SH-SY5Y cells assessed as cell death at 0.1 uM incubated for 48 hrs by propidium iodide staining based fluorescence assay (reference value: 100%)
# Type: functional

[
  {
    "Compound": "Cc1cccn2c3c(nc12)-c1ccccc1NC3(C)C",
    "Activity (%)": 96.6
  },
  {
    "Compound": "CC(=O)N[C@@H](CS)C(=O)O",
    "Activity (%)": 95.5
  },
  {
    "Compound": "CC1(C)Nc2ccccc2-c2nc3ccccn3c21",
    "Activity (%)": 98.7
  },
  {
    "Compound": "c1ccc2c(c1)NC1(CCCC1)c1c-2nc2ccccn12",
    "Activity (%)": 67.7
  },
  {
    "Compound": "Cc1ccn2c3c(nc2c1)-c1ccccc1NC31CCCC1",
    "Activity (%)": 86.9
  },
  {
    "Compound": "Cc1ccn2c3c(nc2c1)-c1ccccc1NC31CCC(C)CC1 (configuration not stated)",
    "Activity (%)": 82.4
  },
  {
    "Compound": "Brc1ccc2nc3c(n2c1)C1(CCCCCC1)Nc1ccccc1-3",
    "Activity (%)": 90.7
  },
  {
    "Compound": "Cc1cccn2c3c(nc12)-c1ccccc1NC31CCC(C)CC1 (configuration not stated)",
    "Activity (%)": 86
  },
  {
    "Compound": "O=c1c2ccccc2[se]n1-c1ccccc1",
    "Activity (%)": 118.7
  },
  {
    "Compound": "Cc1ccn2c3c(nc2c1)-c1ccccc1NC31CCCCC1",
    "Activity (%)": 75.5
  },
  {
    "Compound": "CC1CCC2(CC1)Nc1ccccc1-c1nc3ccccn3c12 (configuration not stated)",
    "Activity (%)": 82.3
  },
  {
    "Compound": "Brc1ccc2nc3c(n2c1)C1(CCCC1)Nc1ccccc1-3",
    "Activity (%)": 78.4
  }
]

* * *

Below: a set of entries, each annotated with reported Activity.
# Tested on: SH-SY5Y
# Procedure text: Neuroprotective activity against MPP+ induced cell death in human SH-SY5Y cells assessed as cell death at 10 uM by YOPRO-1 staining based assay
# Type: functional

[
  {
    "Molecule": "Brc1ccc2nc3c(n2c1)C1(CCCCC1)Nc1ccccc1-3",
    "Activity [%]": 58
  },
  {
    "Molecule": "Brc1ccc2nc3c(n2c1)C1(CCCC1)Nc1ccccc1-3",
    "Activity [%]": 43.5
  },
  {
    "Molecule": "CC1(C)Nc2ccccc2-c2nc3ccccn3c21",
    "Activity [%]": 37.9
  },
  {
    "Molecule": "O=c1c2ccccc2[se]n1-c1ccccc1 [EBSELEN]",
    "Activity [%]": 53.4
  }
]

* * *

# Tested on: SH-SY5Y
# Procedure text: Cytotoxicity against human SH-SY5Y cells assessed as cell death at 10 uM incubated for 72 hrs by propidium iodide staining based fluorescence assay
# Type: toxicity
Activity values, listed per item

[
  {
    "Compound": "Cc1ccn2c3c(nc2c1)-c1ccccc1NC3(C)C",
    "Activity [%]": 13
  },
  {
    "Compound": "CC1(C)Nc2ccccc2-c2nc3ccccn3c21",
    "Activity [%]": 14.6
  },
  {
    "Compound": "Cc1ccn2c3c(nc2c1)-c1ccccc1NC31CCC(C)CC1 (stereo unspecified)",
    "Activity [%]": 10.9
  },
  {
    "Compound": "c1ccc2c(c1)NC1(CCCCCC1)c1c-2nc2ccccn12",
    "Activity [%]": 10.4
  },
  {
    "Compound": "CC1CCC2(CC1)Nc1ccccc1-c1nc3ccc(Br)cn3c12 (stereo unspecified)",
    "Activity [%]": 9.3
  },
  {
    "Compound": "Brc1ccc2nc3c(n2c1)C1(CCCCCC1)Nc1ccccc1-3",
    "Activity [%]": 13.5
  }
]
